B1: HDV Ribozyme (parent)
chain: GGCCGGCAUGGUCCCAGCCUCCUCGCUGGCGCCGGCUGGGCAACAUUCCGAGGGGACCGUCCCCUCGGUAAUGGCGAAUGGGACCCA

Variants of: B1
assay.notes: self-cleavage, relative activity (ratio to wild type); higher = more cleavage; co-transcriptional
Each entry gets NO if its self-cleavage stays under 0.5, and YES if its self-cleavage is 0.5 or above.

variant.identifier | category.label
U9G G76C | YES
U20C G53U | NO
C21A C24G | NO
C21U G67C | NO
C3U C4U | YES
C36U C64A | NO
G25C U69G | NO
U20G C36G | NO
U60A C63A | YES
U46A | YES
C32U G39A | NO
C22A G74U | NO
U20C A70C | NO
A71U G82U | NO
C44U G50U | YES
A16U C21A | NO
G82U C84U | NO
G1A U12A | NO
U69A C84A | YES
C14U G54A | YES
C26A G40C | YES
U27G U47A | YES
C49G U69G | YES
G10C U12G | NO
G10A C61G | YES
A8C G50U | YES
C57G G76U | YES
G11C C36A | NO
C36U C58U | YES
C49A C57U | YES
U46G G82U | NO
A8G A43G | NO
C41U A51G | YES
C21U G40A | YES
A70U | YES
G6U C33A | NO
G5A G74U | NO
C61A U72A | YES
G35C G50U | NO
G5C G34C | NO
U72C C86A | YES
G11C C48G | NO
U9A A78U | NO
G38C C86U | NO
